tested on: NCI-H460 lung
Possible outcomes: yes (active), no (inactive)

structure-notation	label-value
O=S(=O)(CCNCc1ccc(-c2ccc3ncnc(Nc4ccc(OCc5cccc(F)c5)c(Cl)c4)c3c2)o1)c1ccccc1	no
CCOC(=O)c1c(Cl)c2c(n1Cc1cccc(OC)c1)-c1oncc1CC2	no
N=c1n(Cc2ccccc2)c(N)cc(=O)n1Cc1ccccc1	no
COc1nc(N)nc2c1ncn2[C@@H]1O[C@H](CO)[C@@H](O)[C@@H]1O	no
CCn1c(-c2nonc2N)nc2cncc(C(=O)NCCNC)c21	no
COc1cc(-n2cnc(-c3ccc(Cl)cc3)c2)cc(OC)c1OC	no
COc1ccc(-c2nc(N3CCOCC3)c3sc(CN(C)c4ncc(C(=O)NO)cn4)cc3n2)cn1	yes
O=C(NCCNc1nccc(-c2c(-c3cccc(O)c3)nc3sccn23)n1)Nc1cccc(C(F)(F)F)c1	no

====

Property: TGI; scope: individual compounds
system: U251 CNS; assay: NCI tumour cell line growth inhibition, 48 h

compound	TGI
O=C(O)c1cccc2cccc(C(=O)O)c12.[Hg]	26.8 µM
Cc1[nH]nc2ccc3nc(-c4ccc5[nH]ncc5c4)c4c(c3c12)CCCC4	13.9 µM
Cn1c(=O)cc(N=Nc2ccc(Cl)c(Cl)c2)[nH]c1=O	56.3 µM
COc1ccc2c(c1)/C(=C\c1c(Cl)n(C)c3ccccc13)C(=O)N2	10.5 µM
CNC(=O)C1CCCN1C(=O)C(Cc1cnc[nH]1)NC(=O)C1CCC(=O)N1 (stereo not given)	> 100 µM
O=C1C(c2c(O)[nH]c3ccccc23)=Nc2ccc(Br)cc21	48 µM
CCCNC(=O)Cn1c(C)cc2ccccc21	> 100 µM
C[C@]12CC[C@H]3[C@@H](CCC4=CC(=O)CC[C@@]43C)[C@@H]1CC[C@@H]2C(=O)Nc1ccc([N+](=O)[O-])c(C(F)(F)F)c1	31.5 µM
CCOC(=O)NC(=O)c1cn(CCCOC(=O)NCCCCCCNC(=O)OCCCn2cc(C(=O)NC(=O)OCC)c(=O)[nH]c2=O)c(=O)[nH]c1=O	33.6 µM
c1ccc(CCN2CCOCC2)nc1	> 100 µM

====

system: HL-60(TB) leukemia; assay: NCI tumour cell line growth inhibition, 48 h
Class fulfilled: TGI at least 20 µM. Class not fulfilled: TGI below 20 µM.

compound	label-value
CSc1ccc(-c2cc(-c3nc4ccccc4[nH]3)nc(N)c2C#N)cc1	fulfilled
Cc1ccc2[nH]c3c(c2c1)CCC/C3=N/N=C(N)N	fulfilled
COC(=O)C1=C(CS(=O)c2ccc([N+](=O)[O-])cc2[N+](=O)[O-])ON(C)C1c1ccccc1 (stereo not given)	fulfilled
O=C1CC[C@H](c2ccc(O)c3c2C(=O)[C@@H]2O[C@@H]2C3=O)c2cccc(O)c21	not fulfilled
Cc1nn(-c2ccccc2)c2nc3c(nc12)C1=NCCN1C(c1ccc(Cl)cc1)N3 (stereo not given)	not fulfilled
OCCCc1cc(O)c2c(c1)C(CO)C(c1ccc(O)c(O)c1)O2 (stereo not given)	fulfilled
CNS(=O)(=O)c1ccc2[nH]c(O)c(C3=Nc4ccccc4C3=O)c2c1	fulfilled
N#CCCOCN(CO)c1nc(N(CO)COCCC#N)nc(N(CO)COCCC#N)n1	fulfilled
CNCCCNC1(c2cc3ccccc3s2)CCCCC1	not fulfilled
Cc1c2cc[n+](C)cc2c(C)c2c1[nH]c1ccc(Cl)cc12	fulfilled

====

test system: RPMI-8226 leukemia; assay: NCI tumour cell line growth inhibition, 48 h
Property: TGI; scope: individual molecules

molecule	TGI
C/C=N\n1c(C)c(C#N)c(C#N)c1N	> 100 µM
COc1cc(C2CC(c3ccccc3)=NN2C(C)=O)cc(OC)c1OC (stereo not given)	> 27.7 µM
CCCC(=O)NC(C(=O)OCC)(N1CCOCC1)C(F)(F)F (stereo not given)	> 100 µM
Cc1[nH]nc2ccc3nc(-c4ccc5[nH]ncc5c4)c4c(c3c12)CCCC4	6.65 µM
COC(=O)C1=C(c2ccc3c(c2)OCO3)OC(c2ccc3c(c2)OCO3)C1 (stereo not given)	> 100 µM
Cc1cc(=O)oc2c(OS(C)(=O)=O)c(OS(C)(=O)=O)ccc12	> 100 µM
Cc1ccc(-c2nc(N)c(C#N)c3c2CCOc2c-3ccc3ccccc23)cc1	2.26 µM
CC1(C)CCCCCCC2CC2CCCCCC(C)(C)C1=O (stereo not given)	70.1 µM
O=S(=O)(CCNCc1ccc(-c2ccc3ncnc(Nc4ccc(OCc5cccc(F)c5)c(Cl)c4)c3c2)o1)c1ccccc1	> 25 µM
COc1ccc2c(c1)/C(=C\c1c(Cl)n(C)c3ccccc13)C(=O)N2	> 34.3 µM

====

system: SF-539 CNS; assay: NCI tumour cell line growth inhibition, 48 h
Where a SMILES comes first, the peptide text is derived from it. [ ]: non-standard residue; d: D form. The star is where a group is joined. NMeF = CN[C@@H](Cc1ccccc1)C(=O)O; NMeV = CN[C@H](C(=O)O)C(C)C; Boc = CC(C)(C)OC(=O)*; OBn = c1ccc(CO*)cc1

compound	TGI
CC(=O)C1=C(C)N2C(=NC3=C(CCc4ccccc43)C2c2cccc(Br)c2)S1 (centres undefined)	> 100 µM
CC1=CC(=O)[C@@H](O)[C@]2(C)[C@H]3[C@@]4(O)OC[C@@]35[C@@H](C[C@@H]12)OC(=O)C(OC(=O)CC1=CCCC1)[C@H]5[C@@H](C)[C@H]4O (some centres undefined)	0.0676 µM
CC(=O)OC[C@@]1(C)[C@@H]2[C@@H]3[C@@]4(CO[C@]3(C)C(=O)[C@@]3(O)C[C@H](C)[C@H](OC(C)=O)[C@@H]3[C@H]4OC(C)=O)[C@H](OC(=O)c3ccccc3)C[C@@H]21	> 100 µM
CN(C)[C@H]1CC[C@H]2[C@@H]3CCC4C[C@@H](NC(=O)NC(Cc5ccccc5)c5nccs5)CC[C@]4(C)[C@H]3CC[C@]12C (some centres undefined)	3.37 µM
O=S(=O)(CCNCc1ccc(-c2ccc3ncnc(Nc4ccc(OCc5cccc(F)c5)c(Cl)c4)c3c2)o1)c1ccccc1	> 25 µM
CC[C@@H]1CC[C@@H]2[C@H](CC[C@]3(C)[C@@H](O)CC[C@@H]23)[C@H]1CO	> 100 µM
CCCC(=O)NC(C(=O)OCC)(N1CCOCC1)C(F)(F)F (centres undefined)	> 100 µM
CC(C(=O)O)/C(=C\c1ccc2c(c1)OCO2)C(=O)O (centres undefined)	> 100 µM
O=Nc1sc(=N\O)/c(=N/O)sc1NO	> 100 µM
CNC(=O)NC(CCCCNC(=O)OCc1ccccc1)C(=O)OCc1ccccc1 (centres undefined)	49.9 µM
CCOC(=O)N[C@@H]1C2CC(=O)C(O2)[C@@H]1OC (some centres undefined)	> 100 µM
CC1(C)CCCCCCC2CC2CCCCCC(C)(C)C1=O (centres undefined)	> 100 µM
CCCNC(=O)Cn1c(C)cc2ccccc21	> 100 µM
COC(=O)/C(=N\NC(=S)NN)C(C(=O)OC)C(=O)C(=O)Nc1cccc(C(F)(F)F)c1 (centres undefined)	> 100 µM
COc1cc(/C=C2\C(=O)N(c3ccccc3)c3ccccc32)cc(OC)c1OC	91.7 µM
CC(CO)(CBr)COC(=O)c1cc(Br)c(N)c(Br)c1 (centres undefined)	> 100 µM
O=[N+]([O-])c1ccc(N/N=C(\c2ccccc2)c2ccccn2)nc1	15.3 µM
CC1=CC(=O)C(=CN2C(=O)/C(=C\c3cccnc3)NC2=S)C(=O)O1	> 100 µM
COc1nc(N)nc2c1ncn2[C@@H]1O[C@H](CO)[C@@H](O)[C@@H]1O	> 100 µM
COc1ccccc1/C=C/c1c(N)ncnc1Nc1cccc(Cl)c1	35.6 µM
CC(C)[C@@H](C(=O)N1CCC[C@H]1C(=O)OCc1ccccc1)N(C)C(=O)[C@H](C(C)C)N(C)C(=O)[C@H](Cc1ccccc1)N(C)C(=O)[C@H](NC(=O)OC(C)(C)C)C(C)C (Boc-[dV][NMeF][NMeV][NMeV]P-OBn)	> 100 µM
O=C(O)c1ccccc1-c1ccccc1C(=O)Nc1ccc2c(c1)[nH]c(=O)c1ccccc12	> 100 µM
COC(=O)CS(=O)c1ccccc1 (centres undefined)	44.1 µM
COC(=O)Cc1c(/C=C/C(C)(C)n2cnc(CCN3C(=O)CCC3=O)c2)[nH]c2ccccc12	> 100 µM
COC(=O)C(Cc1ccccc1)NC(=O)Cn1ccnc1[N+](=O)[O-] (centres undefined)	> 100 µM
CCC1CC(C)=CCN1S(=O)(=O)c1ccc(C)cc1 (centres undefined)	39.8 µM
CCOC(=O)c1[nH]cc(C)c1-c1c[nH]c2ccccc12	> 100 µM
COC(=O)C1=C(CS(=O)c2ccc([N+](=O)[O-])cc2[N+](=O)[O-])ON(C)C1c1ccccc1 (centres undefined)	56.2 µM
COc1ccc2cc(Cn3cc[n+](Cc4ccc5ccccc5c4)c3)ccc2c1	7.81 µM

Provenance of the data: PubChem BioAssay (NCI)
